system: biotinyl-Phe-oxazolone; assay: self-aminoacylation, catalytic enhancement (BFO) (fold over background); higher = more active; k-Seq, kA / k0A0; sequences stand for … in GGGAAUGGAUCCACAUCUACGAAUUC…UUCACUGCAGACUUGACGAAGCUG
Variants at the floor of the assay were thinned out.
Where self-aminoacylation equals or exceeds 2, the correct label is YES; where it does not, the label is NO.

| seq_text | discrete_label |
| --- | --- |
| AUUCACCCAGGUCAUCGUGUG [Fam2.2 aminoacylation ribozyme variant] | YES |
| CCGCACUUCAAGGAAUCGGUC [Fam1B.1 aminoacylation ribozyme variant] | YES |
| UUACUGCAAACAAUCGGUCUG [Fam1A.1 aminoacylation ribozyme variant] | YES |
| CUAGUGCAAACAAUCGGUCUG [Fam1A.1 aminoacylation ribozyme variant] | YES |
| AUUCAGCUAGGUCAACGGGUG [Fam2.2 aminoacylation ribozyme variant] | YES |
| AUUACCCUGGACAUAGAGUGA [Fam2.1 aminoacylation ribozyme variant] | YES |
| AAGUUUGCUAAUAGUCGCAAC [Fam3.1 aminoacylation ribozyme variant] | NO |
| CUAGUUCAAACAACCGGUCUG [Fam1A.1 aminoacylation ribozyme variant] | NO |
| AUUACCUUGGUCAUCGAGAGA [Fam2.1 aminoacylation ribozyme variant] | NO |

----------
tested on: biotinyl-Leu-oxazolone; assay: self-aminoacylation, catalytic enhancement (BLO) (fold over background); higher = more active; k-Seq, kA / k0A0; sequences stand for … in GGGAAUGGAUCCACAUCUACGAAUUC…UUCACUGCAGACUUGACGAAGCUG
Fewer inactive variants are shown than the library holds.
Let's look at some sequences and their measured self-aminoacylation.
property_label: self-aminoacylation

| seq_text | endpoint_value |
| --- | --- |
| AUUCACGUAGGUCAUCGGGUG [Fam2.2 aminoacylation ribozyme variant] | 7.22 |
| AUUACCCUGGUCAGCGAAUGA [Fam2.1 aminoacylation ribozyme variant] | 1.22 |
| AUUCAAAUAGGUCAUCGGGUG [Fam2.2 aminoacylation ribozyme variant] | 7.01 |
| AUUCACCUAGGACUUCGGGUG [Fam2.2 aminoacylation ribozyme variant] | 3.6 |
| CCACUUCGAACAAUCGGUCUG [Fam1A.1 aminoacylation ribozyme variant] | 1.41 |
| CUACUUCUAACAAUCCGUCUG [Fam1A.1 aminoacylation ribozyme variant] | 0.656 |
| AUUAGGCUGGUCAUCGAGUGA [Fam2.1 aminoacylation ribozyme variant] | 2.85 |
| AUUCACCUGGGUCAUCGGUUG [Fam2.2 aminoacylation ribozyme variant] | 1.4 |
| CUACUUCAAAUCAUCGGUCUG [Fam1A.1 aminoacylation ribozyme variant] | 0.917 |

----------
tested on: biotinyl-Ile-oxazolone; assay: self-aminoacylation, catalytic enhancement (BIO) (fold over background); higher = more active; k-Seq, kA / k0A0; sequences stand for … in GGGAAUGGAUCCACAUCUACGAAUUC…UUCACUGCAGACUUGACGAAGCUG
Fewer inactive variants are shown than the library holds.
Dear colleague, classification is by self-aminoacylation, with ranges listed here: c1 (below 1), c2 (1 to below 3), c3 (3 or more)

| seq_text | assayed_target | discrete_label |
| --- | --- | --- |
| CCACAUUUCAAGGAAUCGGUC [Fam1B.1 aminoacylation ribozyme variant] | biotinyl-Ile-oxazolone | c2 |
| AUUACCCAGGUUAUCGAGUGA [Fam2.1 aminoacylation ribozyme variant] | biotinyl-Ile-oxazolone | c3 |
| AUAACCCUGAUCAUCGAGUGA [Fam2.1 aminoacylation ribozyme variant] | biotinyl-Ile-oxazolone | c2 |
| AAGUUUGGUAAUAGUCGCACG [Fam3.1 aminoacylation ribozyme variant] | biotinyl-Ile-oxazolone | c2 |
| AUUAUCCUGGUCAUUGAGUGA [Fam2.1 aminoacylation ribozyme variant] | biotinyl-Ile-oxazolone | c3 |
| CUUACCCUGGUCAUCGAGUGU [Fam2.1 aminoacylation ribozyme variant] | biotinyl-Ile-oxazolone | c3 |
| AUUCACGGAGGUCAUCGGGUG [Fam2.2 aminoacylation ribozyme variant] | biotinyl-Ile-oxazolone | c3 |
| CUACUUCAGUCAAUCGGUCUG [Fam1A.1 aminoacylation ribozyme variant] | biotinyl-Ile-oxazolone | c1 |
| GCACACUUCAAGCAAUCGGGC [Fam1B.1 aminoacylation ribozyme variant] | biotinyl-Ile-oxazolone | c3 |
| AUUCAAAUAGGUCAUCGGGUG [Fam2.2 aminoacylation ribozyme variant] | biotinyl-Ile-oxazolone | c3 |
| CCACAUUUCAAACAAUCGGUC [Fam1B.1 aminoacylation ribozyme variant] | biotinyl-Ile-oxazolone | c2 |
| CAACACUUAAAGCAAUCGGUC [Fam1B.1 aminoacylation ribozyme variant] | biotinyl-Ile-oxazolone | c2 |
| AAGUAUGCUAUUAGUCGCAAG [Fam3.1 aminoacylation ribozyme variant] | biotinyl-Ile-oxazolone | c2 |
| ACACACUUCAAGCAAUAGGUC [Fam1B.1 aminoacylation ribozyme variant] | biotinyl-Ile-oxazolone | c1 |
| ACGUUUGCUAAUAGUCGCGAG [Fam3.1 aminoacylation ribozyme variant] | biotinyl-Ile-oxazolone | c2 |
| CUACGUCAAACAAUCGUUCUG [Fam1A.1 aminoacylation ribozyme variant] | biotinyl-Ile-oxazolone | c1 |
| AUUCGCCUAGGUCAUCGCGUG [Fam2.2 aminoacylation ribozyme variant] | biotinyl-Ile-oxazolone | c3 |
| AUUCACCUAGGUCAUCGGUAG [Fam2.2 aminoacylation ribozyme variant] | biotinyl-Ile-oxazolone | c1 |
| AUUACCCUGGUCAGCGGGUGA [Fam2.1 aminoacylation ribozyme variant] | biotinyl-Ile-oxazolone | c3 |
| AAGGUUGCUAAUAGUCGGAAG [Fam3.1 aminoacylation ribozyme variant] | biotinyl-Ile-oxazolone | c2 |
| CUACUACAAACAAUAGGUCUG [Fam1A.1 aminoacylation ribozyme variant] | biotinyl-Ile-oxazolone | c1 |
| AAGUUUGCUAAUAAACGCAAG [Fam3.1 aminoacylation ribozyme variant] | biotinyl-Ile-oxazolone | c1 |
| AAGUUUGCUAAUAGUCCCAAU [Fam3.1 aminoacylation ribozyme variant] | biotinyl-Ile-oxazolone | c2 |
| AUUCACCUAGGUCACCCGGUG [Fam2.2 aminoacylation ribozyme variant] | biotinyl-Ile-oxazolone | c3 |
| CCACACUUCAAGCAAACGAUC [Fam1B.1 aminoacylation ribozyme variant] | biotinyl-Ile-oxazolone | c1 |
| CUGCUUCAAAAAAUCGGUCUG [Fam1A.1 aminoacylation ribozyme variant] | biotinyl-Ile-oxazolone | c2 |
| CUACUUCAAUCAAUGGGUCUG [Fam1A.1 aminoacylation ribozyme variant] | biotinyl-Ile-oxazolone | c1 |
| ACUCACCUAGGUGAUCGGGUG [Fam2.2 aminoacylation ribozyme variant] | biotinyl-Ile-oxazolone | c3 |
| ACUCACCUAUGUCAUCGGGUG [Fam2.2 aminoacylation ribozyme variant] | biotinyl-Ile-oxazolone | c3 |
| CCUCACUUCAAACAAUCGGUC [Fam1B.1 aminoacylation ribozyme variant] | biotinyl-Ile-oxazolone | c2 |
| CUACUUCACACGAUCGGUCUG [Fam1A.1 aminoacylation ribozyme variant] | biotinyl-Ile-oxazolone | c1 |
| GUUACCCUGGUCAUCGAGAGA [Fam2.1 aminoacylation ribozyme variant] | biotinyl-Ile-oxazolone | c2 |
| CCACACUUCGAGCAAUCGAUC [Fam1B.1 aminoacylation ribozyme variant] | biotinyl-Ile-oxazolone | c1 |
| AUUCAGCUAGAUCAUCGGGUG [Fam2.2 aminoacylation ribozyme variant] | biotinyl-Ile-oxazolone | c2 |
| AUUCACGUAGGGCAUCGGGUG [Fam2.2 aminoacylation ribozyme variant] | biotinyl-Ile-oxazolone | c3 |
